Test: recombinant UMI read abundance after kanamycin selection (control-corrected) (log10(CPM+1)); higher = more efficient recombination; extreme values may be limits of the assay; sequences stand for … in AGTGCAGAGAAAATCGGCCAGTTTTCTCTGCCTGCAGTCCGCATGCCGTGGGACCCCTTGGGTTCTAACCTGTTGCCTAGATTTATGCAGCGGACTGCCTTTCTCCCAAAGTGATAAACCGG…AGGTTGGTTTCACT; site = the 11-nt donor;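 note: IS621 bridge recombinase in Escherichia coli cells against a fixed T5 target plasmid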
Here the recorded recombinant UMI read abundance (log10) is given for each entry.
reported-endpoint: recombinant UMI read abundance (log10)

1. TAGCTAGCATGGACCGGTTTTCCCGGTAATCCGTATTTGTA (site TAGCTAGCTTT)
0.235
2. CCCCACACATGGACCGGTTTTCCCGGTAATCCGTATTTGCA (site CCCCACACTTG)
1.88
3. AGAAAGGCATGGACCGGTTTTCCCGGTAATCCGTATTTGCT (site AGAACGGCTAG)
0.235
4. GGATAGACATGGACCGGTTTTCCCGGTAATCCGTATTTGAC (site GGATAGACTGA)
0
5. GCTTCTGCATGGACCGGTTTTCCCGGTAATCCGTATTTGCC (site GCTACTGCTGG)
0.647
6. CCCTTATCATGGACCGGTTTTCCCGGTAATCCGTATTTGGG (site CCCTTGTCTCC)
0.0199
7. GTAGGTCCATGGACCGGTTTTCCCGGTAATCCGTATTTGAC (site GTAGGTCCTGT)
0
8. CTACTCTCATGGACCGGTTTTCCCGGTAATCCGTATTTGTA (site CTTCTCTCTTA)
1.42
9. TGGCTAGCATGGACCGGTTTTCCCGGTAATCCGTATTTGAA (site TGGCTAGCTTT)
1.06
10. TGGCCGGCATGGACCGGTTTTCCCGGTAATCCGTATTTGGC (site TGGCCGGCTCC)
0.0175
11. CAATACTCATGGACCGGTTTTCCCGGTAATCCGTATTTGAA (site CAATCCTCTTT)
0
12. ACGGGCGCATGGACCGGTTTTCCCGGTAATCCGTATTTGAG (site ACGGGCGCTCT)
1.15
13. GGAGCACCATGGACCGGTTTTCCCGGTAATCCGTATTTGCA (site GGGGCACCTTG)
0
14. CGATCTACATGGACCGGTTTTCCCGGTAATCCGTATTTGTT (site CGATCGACTAA)
0.00912
15. CGGGCACCATGGACCGGTTTTCCCGGTAATCCGTATTTGCA (site GGGGCACCTTG)
0.00963
16. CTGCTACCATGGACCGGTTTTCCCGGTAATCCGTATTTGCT (site CGGCTACCTAG)
0
17. ATAAGGCCATGGACCGGTTTTCCCGGTAATCCGTATTTGAT (site ATAAGGCCTGT)
0
18. TAGCTAGCATGGACCGGTTTTCCCGGTAATCCGTATTTGTA (site TAGCTAGCTTA)
1.62
19. GAGCTAACATGGACCGGTTTTCCCGGTAATCCGTATTTGAT (site GAGCTCACTAT)
0.0205
20. GGTTTGGCATGGACCGGTTTTCCCGGTAATCCGTATTTGCT (site AGTTTGGCTAG)
0.702
21. TACTAGGCATGGACCGGTTTTCCCGGTAATCCGTATTTGGT (site TACTAGGCTAC)
0.225
22. CGCCATACATGGACCGGTTTTCCCGGTAATCCGTATTTGCT (site CGCCGTACTAG)
0
23. GCTACCTCATGGACCGGTTTTCCCGGTAATCCGTATTTGCG (site GCTACCTCTCG)
1.22
24. CCGCTTACATGGACCGGTTTTCCCGGTAATCCGTATTTGCT (site CCGCTTACTAG)
1.48
25. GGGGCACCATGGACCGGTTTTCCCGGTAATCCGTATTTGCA (site GGGCCACCTTG)
0.00389
26. CGGGAGTCATGGACCGGTTTTCCCGGTAATCCGTATTTGCG (site CGGGAGTCTTG)
0.888
27. AAACATGCATGGACCGGTTTTCCCGGTAATCCGTATTTGAA (site AAACATGCTTT)
2.15
28. CTAGTACCATGGACCGGTTTTCCCGGTAATCCGTATTTGAC (site CTAGTAACTGT)
0
29. GGCCAGCCATGGACCGGTTTTCCCGGTAATCCGTATTTGTT (site GGCCAACCTAA)
0.00333
30. TTTTCCCCATGGACCGGTTTTCCCGGTAATCCGTATTTGTA (site TGTTCCCCTTA)
0.0253

All values here come from the supplement of paper PMC11208160.
